The following variants are listed with their measured protein stability index values.
B1: WSB1 (parent)
chain: DLKDDGNMMKVLRGHQNWVYSCAF

- Variants of: B1
- Experimental Details: protein stability index of a GFP-peptide fusion (GPS, HEK-293T) (PSI 1-6); higher = more stable;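 also: lentivirally expressed fusions sorted by FACS into six bins by GFP to DsRed ratio, PSI derived from sequencing read proportions per bin multiplied by bin number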
- Cond: c terminus: a fixed tail appended
Respond with the number and no other words.

Before answering, review these 10 worked examples.
D4C
2.88
D4P
2.28
F24I
2.28
Y20K
1.39
R13N
2.74
V19M
2.52
N7V
2.03
V11D
1.93
K3P
1.07
G6N
2.12

Next up:
Data request: Endpoint output: protein stability index of `Y20D` . Value?
Data returned: 1.69
